System: BaF3
assay: cells
conditions.used: Mus musculus, BaF3, 72 h
measurement.name: EC50

Solved entries:
CSc1nc(-c2cccc(NC(=O)c3cccc(O)c3CN3Cc4ccccc4C3=O)c2)c(-c2ccnc(NC(C)=O)c2)[nH]1 | > 10 µM
CCOc1nc(-c2cccc(NC(=O)c3cccc(O)c3CN3Cc4ccccc4C3=O)c2)c(-c2ccnc(NC(C)=O)c2)[nH]1 | > 10 µM
CCc1nc(-c2cccc(NC(=O)c3cccc(O)c3CN3Cc4ccccc4C3=O)c2)c(-c2ccnc(NC(C)=O)c2)[nH]1 | > 10 µM
C=CC(=O)Nc1ccc(OC)c(Nc2cc(-c3[nH]c(SC)nc3-c3cccc(NC(=O)c4ccccc4CN4Cc5ccccc5C4=O)c3)ccn2)c1 | 1.7 µM
C=CC(=O)Nc1ccc(OC)c(Nc2cc(-c3[nH]c(SC)nc3-c3cccc(NC(=O)c4c(F)ccc(O)c4CN4Cc5ccccc5C4=O)c3)ccn2)c1 | 1.1 µM

What value of EC50 has been recorded for this entry: CSc1nc(-c2cccc(NC(=O)c3cccc(O)c3CN3Cc4ccccc4C3=O)c2)c(-c2ccnc(Nc3ccccc3)c2)[nH]1
> 10 µM

----------
measured.on: Epidermal growth factor receptor (Homo sapiens, UniProt P00533, C797S/L858R/T790M)
Sequence (P00533 25-1210 T790M/C797S/L858R limits assumed): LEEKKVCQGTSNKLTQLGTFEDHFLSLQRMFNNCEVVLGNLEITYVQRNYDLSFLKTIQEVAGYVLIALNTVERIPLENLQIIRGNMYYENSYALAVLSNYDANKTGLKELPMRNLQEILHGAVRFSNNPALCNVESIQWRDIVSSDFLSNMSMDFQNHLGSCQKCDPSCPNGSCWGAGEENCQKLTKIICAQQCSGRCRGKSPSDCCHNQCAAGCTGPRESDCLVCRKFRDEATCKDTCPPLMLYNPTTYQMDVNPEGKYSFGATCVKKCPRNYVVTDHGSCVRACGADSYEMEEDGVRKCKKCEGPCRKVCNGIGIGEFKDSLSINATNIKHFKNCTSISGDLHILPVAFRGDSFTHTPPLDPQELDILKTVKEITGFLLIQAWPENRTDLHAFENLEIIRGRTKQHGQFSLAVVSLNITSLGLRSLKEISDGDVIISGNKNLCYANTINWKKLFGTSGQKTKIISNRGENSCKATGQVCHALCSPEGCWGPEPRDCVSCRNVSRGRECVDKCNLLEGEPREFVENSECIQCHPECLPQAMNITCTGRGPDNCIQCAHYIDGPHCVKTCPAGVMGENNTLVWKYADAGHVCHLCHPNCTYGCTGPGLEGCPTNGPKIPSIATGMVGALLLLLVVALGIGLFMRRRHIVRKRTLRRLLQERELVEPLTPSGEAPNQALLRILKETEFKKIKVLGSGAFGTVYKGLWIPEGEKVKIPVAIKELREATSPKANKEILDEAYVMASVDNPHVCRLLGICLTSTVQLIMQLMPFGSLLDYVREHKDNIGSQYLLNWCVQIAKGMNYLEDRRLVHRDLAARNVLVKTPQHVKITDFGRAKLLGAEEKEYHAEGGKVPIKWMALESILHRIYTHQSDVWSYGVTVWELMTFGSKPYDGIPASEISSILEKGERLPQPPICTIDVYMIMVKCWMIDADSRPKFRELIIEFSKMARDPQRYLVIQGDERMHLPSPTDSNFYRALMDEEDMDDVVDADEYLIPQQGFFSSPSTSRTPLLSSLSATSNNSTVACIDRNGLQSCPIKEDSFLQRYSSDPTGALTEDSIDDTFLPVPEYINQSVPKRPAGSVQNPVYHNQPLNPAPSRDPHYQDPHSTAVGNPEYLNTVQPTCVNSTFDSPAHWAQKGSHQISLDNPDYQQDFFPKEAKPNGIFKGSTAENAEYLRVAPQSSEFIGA
Design: species or system Sf9
measurement.name: IC50 (nM)
Report only the number, with the unit nM understood.

Solved entries:
C=CC(=O)Nc1ccc(OC)c(Nc2cc(-c3[nH]c(SC)nc3-c3cccc(NC(=O)c4c(F)cccc4CN4Cc5ccccc5C4=O)c3)ccn2)c1 | 340
C=CC(=O)Nc1ccc(OC)c(Nc2cc(-c3[nH]c(CC)nc3-c3cccc(NC(=O)c4cccc(O)c4CN4Cc5ccccc5C4=O)c3)ccn2)c1 | 0.91

Next molecule, please.
What value of IC50 has been recorded for this entry: C=CC(=O)Nc1ccc(OC)c(Nc2cc(-c3[nH]c(SC)nc3-c3cccc(NC(=O)c4c(F)ccc(O)c4CN4Cc5ccccc5C4=O)c3)ccn2)c1
1.6

----------
Test system: BaF3
assay: cells
conditions.used: Mus musculus, BaF3, 72 h
pEC50: −log10 of the molar value.
Criterion: pEC50 meeting or surpassing 6. Met: satisfied. Not met: not satisfied.

CCOc1nc(-c2cccc(NC(=O)c3cccc(O)c3CN3Cc4ccccc4C3=O)c2)c(-c2ccnc(Nc3ccccc3)c2)[nH]1 | not satisfied
C=CC(=O)Nc1ccc(OC)c(Nc2cc(-c3[nH]c(SC)nc3-c3cccc(NC(=O)c4c(F)ccc(O)c4CN4Cc5ccccc5C4=O)c3)ccn2)c1 | satisfied
CCc1nc(-c2cccc(NC(=O)c3cccc(O)c3CN3Cc4ccccc4C3=O)c2)c(-c2ccnc(Nc3ccccc3)c2)[nH]1 | not satisfied
C=CC(=O)Nc1ccc(OC)c(Nc2cc(-c3[nH]c(SC)nc3-c3cccc(NC(=O)c4ccccc4CN4Cc5ccccc5C4=O)c3)ccn2)c1 | satisfied

Now examine the next entry.
Answer whether pEC50 of CSc1nc(-c2cccc(NC(=O)c3cccc(O)c3CN3Cc4ccccc4C3=O)c2)c(-c2ccnc(Nc3ccc(N4CCNCC4)cc3)c2)[nH]1 is greater than or equal to 6.
not satisfied

----------
Tested on: BaF3
assay: cells
conditions.used: Mus musculus, BaF3, 72 h
measurement.name: pEC50
// scale note: pEC50 = -log10(conc_M); give the bare number

Solved entries:
CCC(=O)Nc1ccc(OC)c(Nc2cc(-c3[nH]c(SC)nc3-c3cccc(NC(=O)c4cccc(O)c4CN4Cc5ccccc5C4=O)c3)ccn2)c1 | 5.96
C=CC(=O)Nc1ccc(OC)c(Nc2cc(-c3[nH]c(SC)nc3-c3cccc(NC(=O)c4cccc(O)c4CN4Cc5ccccc5C4=O)c3)ccn2)c1 | 6.12
C=CC(=O)Nc1ccc(OC)c(Nc2cc(-c3[nH]c(CC)nc3-c3cccc(NC(=O)c4cccc(O)c4CN4Cc5ccccc5C4=O)c3)ccn2)c1 | 6.00

What value of pEC50 has been recorded for this entry: C=CC(=O)Nc1ccc(OC)c(Nc2cc(-c3[nH]c(SC)nc3-c3cccc(NC(=O)c4c(F)cccc4CN4Cc5ccccc5C4=O)c3)ccn2)c1
6.14

----------
Test system: BaF3
assay: cells
conditions.used: Mus musculus, BaF3, 72 h
Listing of recorded pEC50 by entry.
// scale note: pEC50 = -log10(conc_M); give the bare number

Solved entries:
C=CC(=O)Nc1ccc(OC)c(Nc2cc(-c3[nH]c(SC)nc3-c3cccc(NC(=O)c4cccc(O)c4CN4Cc5ccccc5C4=O)c3)ccn2)c1 | 6.82
C=CC(=O)Nc1ccc(OC)c(Nc2cc(-c3[nH]c(SC)nc3-c3cccc(NC(=O)c4c(F)cccc4CN4Cc5ccccc5C4=O)c3)ccn2)c1 | 6.74

Next compound, please.
What value of pEC50 has been recorded for this entry: C=CC(=O)Nc1ccc(OC)c(Nc2cc(-c3[nH]c(CC)nc3-c3cccc(NC(=O)c4cccc(O)c4CN4Cc5ccccc5C4=O)c3)ccn2)c1
6.66

----------
System: BaF3
assay: cells
conditions.used: Mus musculus, BaF3, 72 h
pEC50: −log10 of the molar value.
Listing of recorded pEC50 by entry.

Solved entries:
CCOc1nc(-c2cccc(NC(=O)c3cccc(O)c3CN3Cc4ccccc4C3=O)c2)c(-c2ccnc(Nc3ccccc3)c2)[nH]1 | < 5.00
CCc1nc(-c2cccc(NC(=O)c3cccc(O)c3CN3Cc4ccccc4C3=O)c2)c(-c2ccnc(Nc3ccccc3)c2)[nH]1 | < 5.00

Next molecule, please.
Provide value of pEC50 for this record tested with BaF3: CSc1nc(-c2cccc(NC(=O)c3cccc(O)c3CN3Cc4ccccc4C3=O)c2)c(-c2ccnc(Nc3ccc(N4CCNCC4)cc3)c2)[nH]1
< 5.00
